binders and their reported Human GIPR cAMP EC50, HEK293T
Target: T1, full-length human GIPR with an N-terminal FLAG tag, overexpressed on HEK-293T cells (human, UniProt P48546 22-466)
T1 sequence (looked up): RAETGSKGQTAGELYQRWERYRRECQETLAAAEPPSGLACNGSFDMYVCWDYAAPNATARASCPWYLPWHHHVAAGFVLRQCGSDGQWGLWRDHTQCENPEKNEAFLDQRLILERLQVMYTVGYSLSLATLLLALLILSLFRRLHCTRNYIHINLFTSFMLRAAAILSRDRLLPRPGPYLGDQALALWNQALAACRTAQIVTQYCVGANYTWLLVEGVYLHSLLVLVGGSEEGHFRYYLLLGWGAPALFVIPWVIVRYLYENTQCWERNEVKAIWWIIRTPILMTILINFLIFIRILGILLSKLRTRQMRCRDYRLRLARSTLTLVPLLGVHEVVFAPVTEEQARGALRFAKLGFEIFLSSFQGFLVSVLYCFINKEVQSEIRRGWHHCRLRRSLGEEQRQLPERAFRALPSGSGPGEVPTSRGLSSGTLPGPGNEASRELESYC
Test: cell-based or functional assay
Starred links: 1 amine or outer side, 2 acyl side, 3 side chain; linkers in the order of their positions; H or OH if unused. Non-standard residues stand in square brackets, D forms with d. Groups on a side chain read outwards from the residue. No end group written: not given here. *: point of attachment. C20 diacid = O=C(O)CCCCCCCCCCCCCCCCCCC(=O)*; C18 diacid = O=C(O)CCCCCCCCCCCCCCCCC(=O)*; C17 diacid = O=C(O)CCCCCCCCCCCCCCCC(=O)*; γGlu = O=C(O)[C@H](CCC(=O)[*:2])N[*:1]; NMeY = CN[C@@H](Cc1ccc(O)cc1)C(=O)O; AEEA = NCCOCCOCC(=O)O; Aib = CC(C)(N)C(=O)O
Lab book: enter the figure in pM, no units written.

Would you please look over these solved cases?
[NMeY][Aib]EGTFISDYSIAEDRKHQ[Aib]NFVNWLLAQK([AEEA-AEEA-γGlu-C18 diacid])PSSGAPPPS-NH2 (also: E* at 14 and K* at 17 marked * (not explained)) [Compound No. 184] ... 0.5
[NMeY][Aib]EGTFISDYSI[Aib]LDR[Aib]AQ[Aib]K([AEEA-AEEA-γGlu-γGlu-C20 diacid])FVNWLLAQRG-OH [Compound No. 159] ... 0.9
[NMeY][Aib]EGTFISDYSIAK([AEEA-AEEA-γGlu-γGlu-C17 diacid])DR[Aib]AQ[Aib]NFVNWLLAQS-OH [Compound No. 192] ... 0.2
Me-Y[Aib]EGTFISDYSIALDKIAQ[Aib]K([AEEA-AEEA-γGlu-γGlu-C18 diacid])FVEWLLAQRG-OH [Compound No. 173] ... 0.3

Could you now look at the following binder, please?
Challenge: Please report the recorded Human GIPR cAMP EC50, HEK293T for [NMeY][Aib]EGTFISDYSI[Aib]LDK[Aib]AQ[Aib]K([AEEA-AEEA-γGlu-γGlu-C18 diacid])FVNWLLAQRG-OH [Compound No. 220] .
Response given: 0.5
